experiment: in vivo; conditions: male, Gottingen, minipig, stratum corneum (tape strips), topical, 100 μg/mL
VALUE KIND: concentration at 7 days
Please provide the amount together with its unit, number first.

In: Can you share its concentration at 7 days? I mean this compound: C=C1/C(=C\C=C2/CCC[C@]3(C)[C@@H]([C@H](C)CCCC(C)(C)O)CC[C@@H]23)C[C@@H](O)C[C@@H]1O [Calcitriol, 1,25-dihydroxyvitamin D3]
Out: 4520 ng/g

----------
experiment: in vivo; conditions: male, Gottingen, minipig, stratum corneum (tape strips), topical, 10 μg/mL
VALUE KIND: concentration at 7 days (ng/g)
// note: answer is a bare numeric in ng/g

In: Any idea what concentration at 7 days was measured for C=C1/C(=C\C=C2/CCC[C@]3(C)[C@@H]([C@H](C)CCCC(C)(C)O)CC[C@@H]23)C[C@@H](O)C[C@@H]1O [Calcitriol, 1,25-dihydroxyvitamin D3] ?
Out: 2020
